system_name: Insulin-like growth factor 1 receptor (IGF1R) (UniProt P08069 31-1367, limits assumed)
Sequence (P08069 31-1367 limits assumed): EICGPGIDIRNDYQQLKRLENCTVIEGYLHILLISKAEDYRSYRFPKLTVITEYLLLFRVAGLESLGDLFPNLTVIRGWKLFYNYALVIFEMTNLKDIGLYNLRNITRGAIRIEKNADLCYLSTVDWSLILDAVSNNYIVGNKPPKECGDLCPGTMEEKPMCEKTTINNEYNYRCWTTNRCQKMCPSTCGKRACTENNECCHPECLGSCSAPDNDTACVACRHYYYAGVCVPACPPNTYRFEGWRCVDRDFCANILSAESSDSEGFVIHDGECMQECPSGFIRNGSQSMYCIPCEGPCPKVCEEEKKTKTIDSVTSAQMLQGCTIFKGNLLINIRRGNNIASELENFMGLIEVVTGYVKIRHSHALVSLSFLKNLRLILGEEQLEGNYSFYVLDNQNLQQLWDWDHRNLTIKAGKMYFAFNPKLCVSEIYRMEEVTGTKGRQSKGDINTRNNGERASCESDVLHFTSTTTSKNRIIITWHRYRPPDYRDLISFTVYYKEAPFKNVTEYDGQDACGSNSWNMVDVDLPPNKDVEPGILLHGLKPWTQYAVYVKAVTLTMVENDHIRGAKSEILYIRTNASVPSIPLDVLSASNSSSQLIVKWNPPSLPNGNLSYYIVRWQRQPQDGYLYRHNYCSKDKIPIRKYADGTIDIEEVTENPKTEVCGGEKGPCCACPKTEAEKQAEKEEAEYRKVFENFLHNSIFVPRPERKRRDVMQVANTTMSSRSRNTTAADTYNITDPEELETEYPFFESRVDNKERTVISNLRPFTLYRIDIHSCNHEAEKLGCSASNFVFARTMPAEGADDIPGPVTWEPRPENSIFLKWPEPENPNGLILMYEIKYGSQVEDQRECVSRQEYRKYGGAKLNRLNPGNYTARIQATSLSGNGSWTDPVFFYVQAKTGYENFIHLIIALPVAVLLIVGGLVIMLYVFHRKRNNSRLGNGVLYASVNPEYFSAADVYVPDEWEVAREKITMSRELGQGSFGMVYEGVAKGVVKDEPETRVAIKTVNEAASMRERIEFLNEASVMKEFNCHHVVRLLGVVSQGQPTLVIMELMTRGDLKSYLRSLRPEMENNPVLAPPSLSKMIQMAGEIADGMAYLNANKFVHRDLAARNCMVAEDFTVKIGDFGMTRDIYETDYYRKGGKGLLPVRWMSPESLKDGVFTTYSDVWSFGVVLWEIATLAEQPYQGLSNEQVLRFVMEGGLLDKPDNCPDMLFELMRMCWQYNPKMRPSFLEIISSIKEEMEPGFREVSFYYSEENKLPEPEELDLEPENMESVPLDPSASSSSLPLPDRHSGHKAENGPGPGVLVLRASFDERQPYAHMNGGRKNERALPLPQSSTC
test_summary: cell-based or functional assay
The star is where a group is joined. Palmitoyl = CCCCCCCCCCCCCCCC(=O)*

| binder | TGI (µM), MTT assay, MCF-7 cells |
| --- | --- |
| Palmitoyl-HRKRNNSRLGNGVLYAS-NH2 (SMILES CCCCCCCCCCCCCCCC(=O)N[C@@H](Cc1c[nH]cn1)C(=O)N[C@@H](CCCNC(=N)N)C(=O)N[C@@H](CCCCN)C(=O)N[C@@H](CCCNC(=N)N)C(=O)N[C@@H](CC(N)=O)C(=O)N[C@@H](CC(N)=O)C(=O)N[C@@H](CO)C(=O)N[C@@H](CCCNC(=N)N)C(=O)N[C@@H](CC(C)C)C(=O)NCC(=O)N[C@@H](CC(N)=O)C(=O)NCC(=O)N[C@H](C(=O)N[C@@H](CC(C)C)C(=O)N[C@@H](Cc1ccc(O)cc1)C(=O)N[C@@H](C)C(=O)N[C@@H](CO)C(N)=O)C(C)C) [peptide 7 (Pal-HRKRNNSRLGNGVLYAS-NH2)] | 4.1 |
